The reported measurements were obtained from patent US20200407428A1.

target: MARV Ci67 GP1-649 (Marburg virus, isolate Ci67); test: SPR (BIAcore 3000), GP1-649 amine-coupled on CM5, scFv in solution
experimentalReadout: kon (M⁻¹ s⁻¹)
Give your result in M⁻¹ s⁻¹ as a bare value.

binder	u	readoutNumber
scFv R4H12 (scFv, V domains shown) VH: QVQLLESGGGLVQPGESLRLSCVVSGLSFSNHGVTWVRQAPGKGLDWVSSIDTDGGGTFYGDSVKGRFTISRDDSKNTVSLEMNSLRVEDTAVYYCAARQEYSDYYWGRGVPVTVSS VL: EIELTQSPSTLSVSPGERATLSCRASQSVGSRLAWYHQSPGQAPRLLIYGASSRPTGIPDRFSASGSGTEFTLTISSLEPEDVGLYYCQQNSKWPLTFGGGTKVEIK	M⁻¹ s⁻¹	146000

The binder identified as scFv R4G11 (scFv, V domains shown) VH: EVQLVQSGGGLVQPGESLRLSCVVSGLSFSNHGVTWVRQAPGKGLDWVSSIDTDGGGTFYGDSVKGRFTISRDDSKNTVSLEMNSLRVEDTAVYYCAARQEYSDYYWGRGVPVTVSS VL: DIELTQSPSTLSVSPGERATLSCRASQSVGSRLAWYHQRPGQAPRLLIYGASSRPTGIPDRFSGSGSGTEFTLTISSLEPEDVGLYYCQQNSKWPLTFGGGTKVEIK registered its kon at 75000

GET /value?item= scFv R3C4 (scFv, V domains shown) VH: QVQLEQSGAEVKKPGASVKVSCKASGFTSGSYAISWVRQAPGQGLEWMGVIIPLVGVTNYAEKFQGRVTFTADTSTSTAYMELSSLRSEDTATYFCARDPYCSGNGCYGWYDVWGPGVLVTVSS VL: DIELTQSPSSLSASVGDKVTISCRASQYIKSWLAWYQQKPGKAPKLLIYKASSLQSGVPSRFSGSGSGTDFTLTITNVQPEDFATYYCQQYDSAPFTFGPGTKLDIR &field=kon returns 11600

binder scFv R4G7 (scFv, V domains shown) VH: EVQLLESGGDLVQPGESLRLSCVVSGISFSNHGMTWVRQAPGKGLDWVSSIDSDGGGTFYADSVKGRFTISRDDSNNTVSLQMNSLRVEDTAVYYCAARHEYSDYYWGRGVPVTVSS VL: DIELTQSPSILSVSPGERATLSCRASQSVGNRLAWYHQRPGQAPRLLIYGASSRPTGIPDRFSASGSGTEFTLTISSLEPEDVGVYYCQQNSKWPLTFGGGTKVEIK , kon observed: 81900
